Here the recorded HC50 at 1 h is given for each entry.
Assay: Hemolytic activity against New Zealand white rabbit RBC after 1 hr by microplate reader analysis
Format: ADME, cell-based, Oryctolagus cuniculus, Erythrocyte
Conditions: rabbit red blood cells

| Compound string | Output unit | Readout relation | HC50 at 1 h |
| --- | --- | --- | --- |
| CCCCN(CCCC)CCCCOc1cc2oc3cc(OCCCCN(CCCC)CCCC)c(OC)c(CC=C(C)C)c3c(=O)c2c(O)c1CC=C(C)C | µg/mL | > | 200 |
| COc1c(OCCCCN2CCN(C)CC2)cc2oc3cc(OCCCCN4CCN(C)CC4)c(CC=C(C)C)c(O)c3c(=O)c2c1CC=C(C)C | µg/mL | = | 32.3 |
| COc1c(OCCCCn2ccnc2)cc2oc3cc(OCCCCn4ccnc4)c(CC=C(C)C)c(O)c3c(=O)c2c1CC=C(C)C | µg/mL | > | 200 |
| CCN(C)CCCCOc1cc2oc3cc(OCCCCN(C)CC)c(OC)c(CC=C(C)C)c3c(=O)c2c(O)c1CC=C(C)C | µg/mL | = | 25.1 |
| CCN(CC)CCCCCCCCCCCCOc1cc2oc3cc(OCCCCCCCCCCCCN(CC)CC)c(OC)c(CC=C(C)C)c3c(=O)c2c(O)c1CC=C(C)C | µg/mL | > | 200 |
| COc1c(OCCCCN)cc2oc3cc(OCCCCN)c(CC=C(C)C)c(O)c3c(=O)c2c1CC=C(C)C | µg/mL | = | 80.2 |
| CCCCN(C)CCCCOc1cc2oc3cc(OCCCCN(C)CCCC)c(OC)c(CC=C(C)C)c3c(=O)c2c(O)c1CC=C(C)C | µg/mL | = | 60.5 |
